- Tested on: T-47D breast
- PROTOCOL NOTES: NCI tumour cell line growth inhibition, 48 h
READOUT KIND: TGI

Use these answered entries as a reference point.
> print(dat)
                                   compound    reading
1  Cc1ccc(C)c2c(N=Nc3ccccc3[N+](=O)[O-])c(O)[nH]c12   > 100 µM
2     Cc1cn2c(/C=N/N=C(N)N)c(-c3ccsc3)nc2s1    7.86 µM
3  N#CCCN(CCC#N)c1ccc(C(N=Nc2ccc(Cl)cc2)=Nc2ccc(Cl)cc2)cc1    23.9 µM
4  CC(OC(=O)N(N(CCCl)S(C)(=O)=O)S(C)(=O)=O)c1ccc([N+](=O)[O-])cc1 (stereo not given)   > 100 µM
5  Cc1ccc(NC(=O)/C(=N\NC(N)=O)c2c(O)c3ccccc3[nH]c2=O)cc1   > 100 µM
6  CCOC(=O)N1N(c2ccccc2)C(=O)C1(c1ccccc1)c1ccccc1   > 100 µM
7  Nc1ncnc2nn(C3OC(CO)C(O)C3O)nc12 (stereo not given)  > 44.5 µM
8  CCCCCSC1C2C(=O)C(Br)=CC13CCNc1c(O)c4c5c(c13)=[N+]2CCC=5C=N4 (stereo not given)    6.03 µM

Exercise: Return reported TGI; argument: `O=c1c2c3c(sc2nc2n1N=C(c1ccc([N+](=O)[O-])cc1)CS2)CCCC3`
Solution: > 100 µM

Exercise: Return reported TGI; argument: `Cc1nc2cccc([N+](=O)[O-])c2n1CCCN(C)C`
Solution: > 100 µM

====

- Tested on: MDA-MB-231 breast
- PROTOCOL NOTES: NCI tumour cell line growth inhibition, 48 h
READOUT KIND: TGI (µM)
Expressed in µM, but write only the number.

Use these answered entries as a reference point.
> print(dat)
                                   compound  readout.kind  readout.unit  reading
1  CCCCCSC1C2C(=O)C(Br)=CC13CCNc1c(O)c4c5c(c13)=[N+]2CCC=5C=N4 (stereo not given)           TGI            µM      1.5
2         Cn1c2ccccc2c2nnc(NNCc3ccccn3)nc21           TGI            µM       18
3  COc1ccc(-c2nnc(Nc3nc(O)c(C4=c5cc(F)ccc5=NC4=O)s3)o2)cc1           TGI            µM     52.2
4  C=CCn1c(-c2ccc(Cl)cc2Cl)csc1=Nc1c(C)n(C)n(-c2ccccc2)c1=O           TGI            µM       30

Now, please, on to the next compound.
Exercise: Return reported TGI; argument: `CCCCN1CCN(c2ccc3nc(-c4ccc5nc(-c6ccc(OCC)c(OCC)c6)[nH]c5c4)[nH]c3c2)CC1`
Solution: 3.28

====

- Test system: SK-MEL-5 melanoma
- PROTOCOL NOTES: NCI tumour cell line growth inhibition, 48 h; in the data active = GI50 below about 0.43 µM; inactive = the rest
// classify into YES (active), NO (inactive)

Observe how each entry below is paired with its result.
> print(dat)
                                   molecule       study.target  discrete.label
1  Cc1ncc(-c2ccnc(Nc3ccc(S(C)(=O)=O)cc3)n2)n1C(C)C  SK-MEL-5 melanoma              NO
2  Cc1cc(O)cc(C)c1/C=C/c1cncc(C(=O)OC(C)(C)C)c1  SK-MEL-5 melanoma              NO
3  CNCCCn1c2c(c3ccc(F)cc3c1=O)C(=O)c1cc(OC)cnc1-2  SK-MEL-5 melanoma             YES
4  CCCCCSC1C2C(=O)C(Br)=CC13CCNc1c(O)c4c5c(c13)=[N+]2CCC=5C=N4 (centres undefined)  SK-MEL-5 melanoma              NO
5  C[C@]12CC[C@@H]3c4ccc(O)cc4CC[C@H]3[C@@H]1CC[C@@H]2NS(=O)(=O)c1ccc2ccccc2c1  SK-MEL-5 melanoma              NO
6    CC(=O)c1ccc2c(c1)N(CCCN(C)C)c1ccccc1S2  SK-MEL-5 melanoma              NO
7  Cc1cc(S(N)(=O)=O)c(S/C(=N\Nc2ccc([N+](=O)[O-])cc2)c2ccc3ccccc3c2)cc1Cl  SK-MEL-5 melanoma              NO
8  O=C1N[C@H]2[C@H](O)[C@H](O)[C@@H](O)[C@H](O)[C@@H]2c2cc3c(c(O)c21)OCO3  SK-MEL-5 melanoma             YES

Turning now to a further molecule:
Exercise: Hi, do you know how `COc1ccc(Oc2cc(NCCC(F)(F)F)c3ncc(-c4ccc(C(=O)NC5CC5)c(C)c4)n3n2)c(F)c1F` came out in this test?
Solution: NO
